assay method text: NCI Yeast Anticancer Drug Screen. Data for the cln2 rad14 strain (AID 165);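 also: 0% = growth equal to vehicle treated cultures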
experimental setup: S. cerevisiae cln2 rad14 strain, active compounds read high; at 50.0 µM unless noted
The panel holds about 79,000 compounds, 15% with a hit somewhere; the sample as a whole holds those more often.
reported endpoint: growth inhibition (%)
Write the number in % without appending the unit.

The examples below pair each entry with its known result.
molecule	measured
N=c1oc(-c2ccccc2)cc2ccccc12	-45.8
CN(C)CCCNC(=O)N/N=C/c1ccccc1	-6.3
NC(=O)CC(NC(=O)CCl)C(=O)O (stereo unspecified)	12.4
COc1ccc(/C(Cc2ccccc2)=N/Nc2ccc([N+](=O)[O-])c([N+](=O)[O-])c2)cc1	6.35
CC(=O)OC1=C2OC(=O)C3(C2C=CC=C1)C1C=CC=CC13 (stereo unspecified)	-2.45

Recall and state the measured growth inhibition for `CSc1ccc(C)cc1` .
-21.6

Assign growth inhibition to the following record: `CCCCC/C(=N\c1nc[nH]c1C(N)=O)OCC`
-7.1

Note down growth inhibition recorded for `c1ccc(CCCNc2nnnc3ccccc23)cc1`
-19.2

Please list growth inhibition recorded for the molecule C=CCOCC(O)CNCC(O)COCC=C (stereo unspecified)
14.3

Recall and state the measured growth inhibition for CCCSCCC(NC(=O)c1ccccc1)C(=O)O (stereo unspecified) .
-12.9

Report measured growth inhibition; entry is `Cc1cc[n+]2cc(-c3ccc(/C=N/N=C(N)N)cc3)n(C)c2c1`
28.9

Report measured growth inhibition; entry is `Cc1cc(C)[nH]c(=O)c1`
3.8

Given `CCN(CC)CCC(=O)c1ccccc1` , respond with its growth inhibition.
-7.25

Input `CC1(C)CCC(CC(=O)O)(CC(=O)O)CC1` , output reported growth inhibition.
-17.3

Look up growth inhibition of `COc1cc(C(=O)c2cc3c(cc2C(=O)O)OCO3)cc(OC)c1OC` and report it.
-30.6

Give reported growth inhibition value for `O=C(CCCCCCCC(=O)NO)NO`
3.65

Given `O=C(O)CSCC(=O)Nc1ccccc1Cl` , respond with its growth inhibition.
6.05

Please look at this molecule and report its growth inhibition: O=C1CC(c2ccccc2)N1c1ccccc1 (stereo unspecified)
-20.6

====

# maps each entry to its growth inhibition
assay method text: NCI Yeast Anticancer Drug Screen. Data for the sgs1 mgt1 strain (AID 161);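 also: 0% = growth of cultures given vehicle only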
experimental setup: S. cerevisiae sgs1 mgt1 strain, active compounds read high; at 50.0 µM unless noted
The panel holds about 79,000 compounds, 15% with a hit somewhere; the sample as a whole holds those more often.
Dear colleague, please return just the value in %, with no unit written.

Past entries and their recorded results:
molecule	reported endpoint	measured
Cc1ccc([N+](=O)[O-])cc1NC(=O)N(Cc1ccccc1)Cc1ccccc1	growth inhibition	10.8
C(=Nc1cccc2ccccc12)c1cccs1	growth inhibition	2.6
CN(C)/C=N/n1c2ccccc2c2ccccc21	growth inhibition	0

Given the molecule CCC12CCCNC1c1c(n(C)c3ccccc13)C(C(=O)OC)C2 (stereo not drawn) , write its reported growth inhibition.
25

Return growth inhibition for the following molecule: `O=C(O)/C=C(/CC(=O)O)C(=O)O`
-17.2

Please indicate growth inhibition recorded for COc1ccc(C(c2ccc(OC)cc2)N2C(=O)CCC2C(=O)O)cc1 (stereo not drawn)
-48.8

Complete the entry with growth inhibition for CC1CCC2C(=O)OC(=O)C2C1 (stereo not drawn)
11.6

Respond only with growth inhibition recorded for `Cc1nc(Nc2nc3ccccc3[nH]2)[nH]c(=O)c1CCO`
-7.3

// Input: `O=C(CCC(=O)c1ccccc1)NCc1ccccc1` . Output its growth inhibition only.
4.4

Query growth inhibition for `FC(F)(F)c1ccc2ccc3ccc(Cl)cc3c2c1`
-4.3

Indicate its recorded growth inhibition; the molecule in question is COc1ccc(C(C)(OC)c2cc(C(C)(C)C)c(O)c(C(C)(C)C)c2)cc1 (stereo not drawn)
-20.2

Given `Nc1nc2cc(F)ccc2o1` , respond with its growth inhibition.
-9.7
